Target: T1, 4H2536-AA
T1 chain: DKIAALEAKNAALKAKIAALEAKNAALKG
Experiment: two-hybrid library CCmax;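 also: natural log of median RNA to DNA barcode read ratio; higher means stronger binding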
Conditions: mean of both orientations
experimental.readout: interaction score

Known interaction score results, listed for orientation:
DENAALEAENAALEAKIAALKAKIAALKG [4H1198-AA] = -0.886
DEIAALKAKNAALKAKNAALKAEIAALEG [4H1017-AA] = -1.48
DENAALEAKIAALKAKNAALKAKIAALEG [4H1405-AA] = -1.01

[P] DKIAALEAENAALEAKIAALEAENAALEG [4H2211-AA]
[Q] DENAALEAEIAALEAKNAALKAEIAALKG [4H1082-AA]
[R] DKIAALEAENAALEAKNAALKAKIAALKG [4H2238-AA]
[S] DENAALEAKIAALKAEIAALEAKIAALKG [4H1350-AA]
Req: Sort these binders on interaction score so the largest reading comes first. Please list the labels in the order you were asked to rank them.
Resp: P, S, R, Q
